Form: system (Cryptococcus neoformans), quantity (MIC), values below.

Known results for compounds:
| compound | MIC |
| --- | --- |
| Clc1ccc(SCNc2ccccc2Cl)cc1 | > 10 µM |
| Cn1c(=S)c2nc(SCCN3CCCC3)[nH]c2n(C)c1=O | > 10 µM |
| O=C1C(Cl)=C(NCCc2ccccc2)C(=O)c2ccccc21 | 0.625 µM |
| O=C(Nc1ccc(C2=NCCN2)cc1)c1ccc(Cl)c(C(=O)Nc2ccc(C3=NCCN3)cc2)c1 | > 10 µM |
| c1ccc2nc(OCCN3CC3)ccc2c1 | > 10 µM |
| Cc1nc(/N=N/c2ccccc2)[nH]c1/N=N/c1ccccc1 | > 10 µM |
| Cc1c2cc[n+](CCN3CCCCC3)cc2c(C)c2c1[nH]c1ccc(O)cc12 | 10 µM |
| CCC(C)c1cnc(CC(C)C)c(=O)n1O (stereo unspecified) | > 10 µM |
| Oc1c(CN2CCN(c3ccccc3)CC2)cc(Br)c2cccnc12 | > 10 µM |
| CCOC(=O)c1ccc(Nc2sc(C(=O)c3cccc([N+](=O)[O-])c3)c(N)c2C#N)cc1 | > 10 µM |

Which MIC value is on record for "N=C(N)NCCCS(=O)(=O)Nc1ccc(Nc2c3ccccc3nc3cc([N+](=O)[O-])ccc23)cc1" ?
> 10 µM

====

system: Pseudomonas aeruginosa; experiment: microbe, parasite or virus in culture; settings: ATCC 27853, 18 h, ASSAY_TEST Inhibition of Bacterial Growth, detection method Absorption (OD600), MEDIA CAMHB, plate type 384well, NBS, CORNING #3640
Description: Antibacterial activity against Pseudomonas aeruginosa ATCC 27853 (CO-ADD:GN_042); MIC in CAMBH media using NBS plates, by OD(600)
outcome measure: MIC

Sample records with MIC:
| compound | test system | MIC |
| --- | --- | --- |
| Nc1ncnc2c1ncn2C1OC(COS(N)(=O)=O)C(O)C1O (configuration not stated) | Pseudomonas aeruginosa | > 10 µM |
| COC1C(OC(=O)c2ccc(C)[nH]2)C(O)C(Oc2ccc3c(O)c(NC(=O)c4ccc(O)c(CC=C(C)C)c4)c(=O)oc3c2Cl)OC1(C)C (configuration not stated) | Pseudomonas aeruginosa | 10 µM |
| COC12C(COC(N)=O)C3=C(C(=O)C(C)=C(N)C3=O)N1CC1C2N1C (configuration not stated) | Pseudomonas aeruginosa | > 10 µM |
| CN(C)CCOc1ccc2c(c1)C(=O)/C(=C\c1ncc([N+](=O)[O-])n1C)C2 | Pseudomonas aeruginosa | > 10 µM |
| Nc1ccc(S(=O)(=O)Nc2cnc3ccccc3n2)cc1 [SULFAQUINOXALINE] | Pseudomonas aeruginosa | > 10 µM |

MIC for "O=C1C(Cl)=C(NCCc2ccccc2)C(=O)c2ccccc21" ?
> 10 µM

Looking for the measured MIC of COC1CC2\C=C(C)/C=C/C=C/C(=O)NC(c3ccccc3)C/C=C/CCC(O)CC(=O)C2=C1O (configuration not stated) , can you help?
> 10 µM

What MIC value was documented for this compound, "O=C(O)C(=O)Nc1nc[nH]n1" ?
> 10 µM

Look up MIC: "O=C1N=C(Nc2nc3ccccc3[nH]2)c2ccccc21"
> 10 µM

Entry "O=C(/C=C/c1cccnc1)c1ccccc1O" has what MIC?
> 10 µM

====

Measured MIC, listed per entry for reference.
system: Candida albicans; assay: microbe, parasite or virus in culture; settings: ATCC 90028, ASSAY_TEST Inhibition of Fungal Growth, detection method Absorption (OD530), plate type 384well, NBS, CORNING #3640
Description: Antifungal activity against Candida albicans ATCC 90028 (CO-ADD:FG_001); MIC in YNB media using NBS plates, by OD630

Consider the worked cases shown below.
| cpd smiles | MIC |
| --- | --- |
| CC(C)=NNc1ncnc2[nH]cnc12 | 2.5 µM |
| CCOC(=O)/C(C#N)=C1\SS/C(=C(/C#N)C(=O)OCC)S1 | > 10 µM |
| Oc1c(/N=N/c2nnn[nH]2)ccc2ccccc12 | > 10 µM |
| CC[C@@]1(O)C(=O)OCc2c1cc1n(c2=O)Cc2cc3c(NC(=O)CN)cccc3nc2-1 | > 10 µM |

Param item = "N=C(N)NCCCS(=O)(=O)Nc1ccc(Nc2c3ccccc3nc3cc([N+](=O)[O-])ccc23)cc1" ; retrieve measured MIC.
> 10 µM

Looking for the measured MIC of "CSc1nc(C)c(Br)c(N2CC2)n1" , can you help?
> 10 µM

Which MIC is listed for "CC1(C)CC(=O)CC(C)(C)N1O" ?
> 10 µM

Please give the measured MIC for this compound: "CCOC(=O)c1ccc(Nc2sc(C(=O)c3cccc([N+](=O)[O-])c3)c(N)c2C#N)cc1"
> 10 µM

Would you mind telling me what MIC value was observed for "O=Nc1c(-c2cccc([N+](=O)[O-])c2)nc2ncccn12" ?
0.625 µM

Any idea what MIC was measured for "Cc1ccc(C=C2C(Cl)=C(Cl)C(Cl)=C2Cl)cc1" ?
> 10 µM

What measured MIC goes with "CCN(CC)c1ccc(C(=C2C=CC(=[N+](CC)CC)C=C2)c2ccc(N(CC)CC)cc2)cc1" ?
≤ 0.0781 µM

====

tested on: Pseudomonas aeruginosa; assay: microbe, parasite or virus in culture; details: ATCC 27853, 18 h, ASSAY_TEST Inhibition of Bacterial Growth, detection method Absorption (OD600), MEDIA CAMHB, plate type 384well, NBS, CORNING #3640
// reported MIC per item

| compound | test system | readout value |
| --- | --- | --- |
| Cc1ccnc(NC(c2ccccc2)c2ccc3cccnc3c2O)c1 (centres undefined) | Pseudomonas aeruginosa | > 10 µM |

Field request: MIC | item: "c1ccc2nc(OCCN3CC3)ccc2c1"
> 10 µM

Looking for the measured MIC of "CCN(CC)c1ccc(C(=C2C=CC(=[N+](CC)CC)C=C2)c2ccc(N(CC)CC)cc2)cc1" , can you help?
2.5 µM

Which MIC value belongs to "O=Nc1c(-c2cccc([N+](=O)[O-])c2)nc2ncccn12" ?
> 10 µM

Give its MIC value. Item: "Oc1ccc2ccccc2c1/N=N/c1nccs1"
> 10 µM

Return reported MIC; argument: "SC1=NC2(CCCCCC2)NN1c1ccccc1"
> 10 µM

Tell me the measured MIC of "Cc1c(N2CCCC2)cc2c(c1NC(=O)c1ccccc1Cl)C(C)(C)CC2(C)C" , please.
> 10 µM

Which MIC reading was recorded for the compound CCN1CCCC(Sc2nc3c(=S)n(C)c(=O)n(C)c3[nH]2)C1 (centres undefined) ?
> 10 µM

Item "O=[N+]([O-])c1cnc(Sc2ccncn2)s1" has what recorded MIC?
> 10 µM

Data request, read-out MIC, for "Sc1nc2ccc(Cl)cc2s1"
> 10 µM

# MIC lookup, item "Nc1nc(N)c2c(ccc3[nH]ccc32)n1"
> 10 µM

What measured MIC goes with COC1CC(C)C(OC)c2cc(O)cc(c2O)NC(=O)/C(C)=C/C=C\C(C)C(OC(N)=O)/C(C)=C\C(C)C1OC (centres undefined) ?
> 10 µM

====

tested on: HEK293; experiment: cells; format: functional; details: Homo sapiens, ATCC CRL1573, HEK293; ASSAY_TEST Inhibition of Cell Viability; detection method Resazurin; Fluorescence (ex560/em590); MEDIA DMEM with 10% FBS; plate type 384well; TC; CORNING #3712; time 18 hr
CC50 by entry:

Past entries and their recorded results:
| compound | outcome measure | readout value |
| --- | --- | --- |
| O=C(Nc1ccc(C2=NCCN2)cc1)c1ccc(C(=O)Nc2ccc(C3=NCCN3)cc2)c(Cl)c1 | CC50 | > 10 µM |
| CCN1CCCC(Sc2nc3c(=S)n(C)c(=O)n(C)c3[nH]2)C1 (stereo unspecified) | CC50 | > 10 µM |
| COc1ccccc1/C=C/C(=O)/C=C/c1ccccc1O | CC50 | 3.95 µM |

Report CC50 for "NC1(N2SC(S)=C3CCCC=C32)CCCCC1" tested on HEK293.
> 10 µM

Could you share what CC50 was measured for "Oc1cccc2nc3ccccc3nc12" , tested on HEK293?
> 10 µM

Kindly state the measured CC50 obtained for "Cc1ccc(NCCN(C)C)c2c(=O)c3cc(O)ccc3sc12" with HEK293.
1.3 µM

====

Record set of MIC for target or system Cryptococcus neoformans.

| molecule | test system | outcome measure | readout value |
| --- | --- | --- | --- |
| O=[N+]([O-])c1cnc(Sc2ccncn2)s1 | Cryptococcus neoformans | MIC | 5 µM |

Let us examine a further case.
Request the reported MIC associated with "N=C(Nc1nc(-c2ccccn2)cc2ccccc12)c1ccccn1"
10 µM

====

test system: Candida albicans; test: microbe, parasite or virus in culture; conditions: ATCC 90028, ASSAY_TEST Inhibition of Fungal Growth, detection method Absorption (OD530), plate type 384well, NBS, CORNING #3640
outcome measure: MIC

| molecule | test system | MIC |
| --- | --- | --- |
| C#CC(c1ccccc1)(c1ccccc1)n1ccnc1 | Candida albicans | > 10 µM |
| CN(C)c1n/c(=N/c2cccc(Cl)c2)ss1 | Candida albicans | 10 µM |
| Cc1cc2nc(CS)[nH]c2cc1C | Candida albicans | > 10 µM |
| O=C1C=C(c2ccccc2)OC(=O)C1C(=O)c1ccccc1 (configuration not stated) | Candida albicans | > 10 µM |
| Cc1ccc([S+]([O-])c2ccc([N+](=O)[O-])c3nonc23)cc1 (configuration not stated) | Candida albicans | > 10 µM |

Recorded MIC for "O=C(Nc1ccccc1)C1=C(Nc2ccccc2)CSC1" , please?
> 10 µM

Would you mind telling me what MIC value was observed for "Cc1ccccc1NC(=O)NCCN1CC1" ?
> 10 µM

Item "C/C(=N/NC(=S)N1CC2CCC(CC2)C1)c1cnccn1" has what recorded MIC?
2.5 µM

# lookup: MIC of "Clc1ccc(SCNc2ccccc2Cl)cc1"
> 10 µM

For "CN(C)c1ccc(/N=N/c2ccccn2)cc1" , what is its reported MIC?
10 µM

Can you share its MIC? I mean this molecule: "O=[N+]([O-])c1ccc(/C=[N+](\[O-])CCO)o1"
> 10 µM

Hello, the source for this data is ChEMBL document CHEMBL4296182, in case you need it.
